B1: PTPN9 (parent)
chain: LKGAFPARLKKVLIVGAPIWFRVP

Variants of: B1
Assay: protein stability index of a GFP-peptide fusion (GPS, HEK-293T) (PSI 1-6); higher = more stable;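 note: lentivirally expressed fusions sorted by FACS into six bins by GFP to DsRed ratio, PSI derived from sequencing read proportions per bin multiplied by bin number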
Conditions: c terminus: a fixed tail appended
Label scheme, based on protein stability index: category 1: < 2; category 2: ≥ 2 and < 3; category 3: ≥ 3

# count of solved cases: 5
Variant Annotation | Label
K2A | category 2
G16R | category 3
R22G | category 2
L1W | category 2
W20F | category 2

Place this variant in its band: "K2F"
category 1

Class for "V15F" ?
category 2

Please classify: "L9F"
category 1

Which protein stability index band matches "G3K" ?
category 3

Assign a bin to "L1K"
category 2

For this variant, which bin applies? "K11E"
category 2

Given "L13D" , name the class its protein stability index places it in.
category 1

Categorize the following entry: "A7F"
category 3

Categorize the following entry: "L13F"
category 2

Which class is correct for the following variant? "A4L"
category 3

State the class of the variant shown: "A4I"
category 3

Categorize the following entry: "F21N"
category 2

Kindly identify the class of "A17T" .
category 3

Assign a category based on measured protein stability index for "K11F" and give only the class name.
category 3

GET /class?item= "V12N"
category 3

From: the supplement of paper PMC10567573
